target_desc: T1, Ang2 with N467 mutated with alanine, tagged with FLAG (human, UniProt O15123 19-496, limits assumed)
T1 sequence: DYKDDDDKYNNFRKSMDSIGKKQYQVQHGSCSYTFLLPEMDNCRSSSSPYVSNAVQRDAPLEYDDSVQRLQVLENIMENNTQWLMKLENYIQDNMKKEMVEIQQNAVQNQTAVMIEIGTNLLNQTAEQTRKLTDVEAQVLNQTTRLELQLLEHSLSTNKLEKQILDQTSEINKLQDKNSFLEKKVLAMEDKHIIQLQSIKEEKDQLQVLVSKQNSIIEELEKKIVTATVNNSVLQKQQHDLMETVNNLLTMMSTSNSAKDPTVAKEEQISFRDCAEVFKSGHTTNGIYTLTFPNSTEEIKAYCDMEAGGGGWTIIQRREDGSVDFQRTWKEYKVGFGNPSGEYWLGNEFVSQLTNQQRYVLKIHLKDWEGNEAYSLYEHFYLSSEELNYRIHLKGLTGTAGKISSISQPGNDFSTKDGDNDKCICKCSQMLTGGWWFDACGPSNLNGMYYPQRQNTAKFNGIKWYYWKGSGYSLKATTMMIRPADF
measurement_protocol: ELISA, scFv coated, 250 ng FLAG-tagged Ang2 mutant, anti-FLAG-HRP
readout_label: Relative binding (%) with Mutant Ang2 compared to the binding with native Ang2

binder	unit_of_measure	observed_measurement
SAIT-ANG-2-AB-8-A5 (scFv form) (scFv, V domains shown, scFv from a phage display library) VH: EVQLLESGGGLVQPGGSLRLSCAASGFTFSDYYMSWVRQAPGKGLEWVSGIYPSGGSTYYADSVKGRFTISRDNSKNTLYLQMNSLRAEDTAVYYCARDPSTLTYAGFDYWGQGTLVTVSS VL: QSVLTQPPSASGTPGQRVTISCSGSSSNIGNNYVTWYQQLPGTAPKLLIYADSHRPSGVPDRFSGSKSGTSASLAISGLRSEDEADYYCATWDYSLSGYVFGGGTKLTVLG	%	90.7
